- measured_target: human mGluR5 (Homo sapiens)
- test: Cell-based functional Ca2+ mobilization assay, potentiation of glutamate EC20 response (H10H cell-line)
- experimental_conditions: H10H cell-line expressing recombinant human mGluR5; potentiation in presence of glutamate EC20
reported_property: EC50 (nM)

Observe how each entry below is paired with its result.
1. O=C(c1ccc(F)nc1)N1CCc2nc(COc3ccccc3)oc2C1    1120
2. O=C(c1ccc(OC(F)(F)F)cc1)N1CCc2nc(COc3ccccc3)oc2C1    933
3. O=C(c1coc2ccccc12)N1CCc2nc(COc3ccccc3)oc2C1    407
4. O=C(CCc1ccccc1)N1CCc2nc(COc3ccccc3)oc2C1    813
5. O=C(c1ccc(F)cc1F)N1CCc2nc(COc3cccc(F)c3)oc2C1    331

1. O=C(N1CCc2nc(COc3ccccc3)oc2C1)C(F)(F)F
2. Cc1ncccc1C(=O)N1CCc2nc(COc3ccccc3)oc2C1
3. O=C(c1cccc(F)c1)N1CCc2nc(COc3ccc(F)cc3)oc2C1
4. N#Cc1ccccc1C(=O)N1CCc2nc(COc3ccccc3)oc2C1
# input Hey, quick one: sort these by EC50, low to high? Answer by writing out the labels in the requested order.
# output 3, 1, 4, 2
(3: 245 nM, 1: 891 nM, 4: 1620 nM, 2: 6030 nM)

A. O=C(c1ccc(F)cc1)N1CCc2nc(COc3ccccc3F)oc2C1
B. N#Cc1cc(C(=O)N2CCc3nc(COc4ccccc4)oc3C2)ccc1F
# input Exercise: compare A and B ; which one has the greater EC50? Your choice should be expressed through its label.
# output A

###

- measured_target: human mGluR5 (Homo sapiens, UniProt P41594)
- Sequence (P41594 21-1180 isoform P41594-2 limits assumed): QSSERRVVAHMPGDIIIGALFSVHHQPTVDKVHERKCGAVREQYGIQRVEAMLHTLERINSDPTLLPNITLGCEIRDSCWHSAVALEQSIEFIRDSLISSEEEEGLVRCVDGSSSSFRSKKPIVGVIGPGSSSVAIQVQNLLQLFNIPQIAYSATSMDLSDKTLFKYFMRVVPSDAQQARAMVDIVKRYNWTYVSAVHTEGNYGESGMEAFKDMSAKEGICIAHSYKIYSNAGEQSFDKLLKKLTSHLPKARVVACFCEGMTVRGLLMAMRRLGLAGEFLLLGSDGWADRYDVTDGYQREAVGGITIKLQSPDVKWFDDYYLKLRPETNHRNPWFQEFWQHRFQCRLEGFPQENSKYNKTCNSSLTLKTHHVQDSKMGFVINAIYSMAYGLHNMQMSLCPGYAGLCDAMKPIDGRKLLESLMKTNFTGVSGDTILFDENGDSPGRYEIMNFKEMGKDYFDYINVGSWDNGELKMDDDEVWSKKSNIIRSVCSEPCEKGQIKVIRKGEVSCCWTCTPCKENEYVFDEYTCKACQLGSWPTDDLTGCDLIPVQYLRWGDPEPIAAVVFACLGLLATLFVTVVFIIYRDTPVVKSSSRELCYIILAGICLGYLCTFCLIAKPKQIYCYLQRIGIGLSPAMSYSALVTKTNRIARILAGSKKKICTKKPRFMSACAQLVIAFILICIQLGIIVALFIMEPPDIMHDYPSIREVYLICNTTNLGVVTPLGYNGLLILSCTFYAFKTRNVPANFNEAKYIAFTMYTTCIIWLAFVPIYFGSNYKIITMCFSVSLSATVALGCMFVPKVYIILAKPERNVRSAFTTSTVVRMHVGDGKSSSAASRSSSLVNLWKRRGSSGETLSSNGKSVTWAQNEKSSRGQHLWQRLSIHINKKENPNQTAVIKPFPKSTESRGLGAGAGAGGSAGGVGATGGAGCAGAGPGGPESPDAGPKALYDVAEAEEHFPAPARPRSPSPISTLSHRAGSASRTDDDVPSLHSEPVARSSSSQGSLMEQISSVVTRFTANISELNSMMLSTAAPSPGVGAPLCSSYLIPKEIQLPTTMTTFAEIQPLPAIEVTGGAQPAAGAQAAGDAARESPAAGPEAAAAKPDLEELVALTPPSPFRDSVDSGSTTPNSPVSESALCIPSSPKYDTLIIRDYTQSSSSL
- test: Cell-based functional Ca2+ mobilization assay, potentiation of glutamate EC20 response (H10H cell-line)
- experimental_conditions: H10H cell-line expressing recombinant human mGluR5; potentiation in presence of glutamate EC20
- Protocol: Human embryonic kidney (HEK) cells transfected with rat mGluR5 were plated in clear bottom assay plates for assay in a Functional Drug Screening System (FDSS). In the alternative assay, HEK cells transfected with human mGluR5 were plated for assay in the FDSS. […] After establishment of a fluorescence baseline for about three seconds, the compounds of the present invention were added to the cells, and the response in cells was measured. […]
pEC50: −log10 of the molar value.
reported_property: pEC50

1. O=C(c1ccno1)N1CCc2nc(COc3ccccc3)oc2C1    5.75
2. O=C(c1cccc2c1OCCO2)N1CCc2nc(COc3ccccc3)oc2C1    6.11
3. Cc1ccc(C(=O)N2CCc3nc(COc4ccccc4)oc3C2)o1    6.52
4. O=C(c1n[nH]c2ncccc12)N1CCc2nc(COc3ccccc3)oc2C1    6.44

1. O=C(c1ccc(F)cn1)N1CCc2nc(COc3ccccc3)oc2C1
2. O=C(c1ccc(F)cc1F)N1CCc2nc(COc3ccccc3)oc2C1
3. O=C(c1ccc(F)cc1)N1CCc2nc(/C=C/c3ccccc3)oc2CC1
4. Cn1cccc1C(=O)N1CCc2nc(COc3ccccc3)oc2C1
# input List from greatest to least pEC50. Answer by writing out the labels in the requested order.
# output 4, 2, 3, 1
(4: 6.59, 2: 6.30, 3: 5.74, 1: 5.53)

###

reported_property: melting point (°C)

1. O=C(c1cccc2c1OCCO2)N1CCc2nc(COc3ccccc3)oc2C1 [Example B99]    55.5
2. O=C(c1ccc(F)cc1)N1CCc2nc(COc3ccc(O)cc3)oc2C1 [Example B35]    137.4

P. N#Cc1ccc(C(=O)N2CCc3nc(COc4cccc(F)c4)oc3C2)cc1F [Example B89]
Q. N#Cc1cc(C(=O)N2CCc3nc(COc4cccc(F)c4)oc3C2)ccc1F [Example B97]
# input Exercise: compare P and Q ; which one has the greater melting point? Your choice should be expressed through its label.
# output Q
(Q: 147.7 °C, P: 102.9 °C)

Cited source for all entries: patent US9090632B2
